test: Rat pharmacokinetics; format: in vivo; settings: rat PK studies
measured metric: rat PK profile (in words)

O=S(=O)(c1cc(F)c(O)c2ncccc12)N1CCCC1 [Compound 28]	good pharmacokinetics
O=S(=O)(c1cc(F)c(O)c2ncccc12)C1CCCC1 [Compound 25]	good pharmacokinetics

* * *

test system: rat hepatocytes; assay: Hepatocyte stability; format: in vitro ADME
measured metric: metabolic stability / clearance in rat hepatocytes (in words)

O=S(=O)(c1ccc(O)c2ncccc12)N1CCCC1 [Compound 12]	Poor metabolic stability
O=S(=O)(c1ccc(O)c2ncccc12)N1CCC(c2ccc(F)cc2)C1 (stereo not drawn) [Compound 13]	Poor metabolic stability

* * *

system: rat hepatocytes; test: Hepatocyte stability; assay type: in vitro ADME
measured metric: Hepatocyte Stability (Rat)
Write down the value, and be sure its unit follows.

// solved cases for Hepatocyte Stability (Rat) follow
O=S(=O)(c1ccc(O)c2ncccc12)N1CCCC1Cc1ccccc1 (centres unmarked) [Compound 16]	228 μL/min/10^6 cells
O=S(=O)(c1cc(Cl)c(O)c2ncccc12)N1CCCC1 [Compound 29]	14 μL/min/10^6 cells
CCS(=O)(=O)c1ccc(O)c2ncccc12 [Compound 15, 5-(Ethylsulfonyl)quinoline-8-ol]	39 μL/min/10^6 cells

Please go through the list and note Hepatocyte Stability (Rat) for each compound.
1. Cc1ccc(S(=O)(=O)c2cc(Cl)c(O)c3ncccc23)cc1 [Compound 22, 7-Chloro-5-tosylquinolin-8-ol]
2. Cc1ccc(S(=O)(=O)c2cc(F)c(O)c3ncccc23)cc1 [Compound 21, 7-Fluoro-5-tosylquinolin-8-ol]
3. O=S(=O)(c1cc(F)c(O)c2ncccc12)C1CCCC1 [Compound 25]

["78 μL/min/10^6 cells", "36 μL/min/10^6 cells", "19 μL/min/10^6 cells"]

Please go through the list and note Hepatocyte Stability (Rat) for each compound.
1. Cc1cc(S(=O)(=O)N2CCCC2)c2cccnc2c1O [Compound 30]
2. O=S(=O)(c1ccc(C(F)(F)F)cc1)c1cc(F)c(O)c2ncccc12 [Compound 18]

103 μL/min/10^6 cells
12 μL/min/10^6 cells

* * *

Record form. Attribute: clearance. Fill in for each entry.
assay: Rat pharmacokinetics; format: in vivo; conditions: rat, plasma, iv, 1 mg/kg
Numbers only, in mL/min/kg.

// solved cases for clearance follow
O=S(=O)(c1ccc(C(F)(F)F)cc1)c1cc(F)c(O)c2ncccc12	13
O=S(=O)(c1ccc(F)cc1)c1cc(Cl)c(O)c2ncccc12	0.31
O=S(=O)(c1cc(F)c(O)c2ncccc12)C1CCCC1	0.62
O=S(=O)(c1ccc(O)c2ncccc12)C1CCCC1	26
Cc1ccc(S(=O)(=O)c2cc(Cl)c(O)c3ncccc23)cc1	25

Please go through the list and note clearance for each molecule.
1. O=S(=O)(c1cc(Cl)c(O)c2ncccc12)N1CCCC1
2. O=S(=O)(c1cc(F)c(O)c2ncccc12)N1CCCC1
3. O=S(=O)(c1ccc(F)cc1)c1cc(F)c(O)c2ncccc12
4. Cc1ccc(S(=O)(=O)c2cc(F)c(O)c3ncccc23)cc1

1
11
12
27

* * *

Record form. Attribute: Hepatocyte Stability (Rat). Fill in for each entry.
system: rat hepatocytes; assay: Hepatocyte stability; format: in vitro ADME
Numbers only, in μL/min/10^6 cells.

Please go through the list and note Hepatocyte Stability (Rat) for each compound.
1. O=S(=O)(c1ccc(C(F)(F)F)cc1)c1ccc(O)c2ncccc12 [Compound 17]
2. O=S(=O)(c1cc(Cl)c(O)c2ncccc12)C1CCCC1 [Compound 26]
3. O=S(=O)(c1ccc(F)cc1)c1cc(Cl)c(O)c2ncccc12 [Compound 19]
4. O=S(=O)(c1ccc(F)cc1)c1cc(F)c(O)c2ncccc12 [Compound 20]
5. O=S(=O)(c1ccc(O)c2ncccc12)N1CCCC1 [Compound 12]

46
18
4
15
177

Could you share which Hepatocyte Stability (Rat) value was measured for O=S(=O)(c1cc(F)c(O)c2ncccc12)N1CCCC1 [Compound 28] ?
21

This collection of values is drawn from paper PMC6398604.
